# key: entry, value: Kd
target: HLA-A*24:02; test: IEDB peptide-MHC binding, purified MHC/competitive/radioactivity; filed as Kd, often an IC50 or EC50 that approximates it; bounds were set here for any values at or beyond the usual limits of such assays; settings: source organism: Dengue virus 2 Jamaica/1409/1983
experimental readout: Kd

INSERT INTO measurements (primary_sequence, experimental_readout, result) VALUES
  ('LFMALVAFL', 'Kd', '8200 nM'),
  ('WYAQIQPHW', 'Kd', '24.3 nM'),
  ('SIILEFFLI', 'Kd', '1250 nM');

---

molecular target: HLA-B*39:01; assay: IEDB peptide-MHC binding, purified MHC/competitive/fluorescence; filed as Kd, often an IC50 or EC50 that approximates it; bounds were set here for any values at or beyond the usual limits of such assays; settings: source organism: Mammarenavirus juninense
experimental readout: Kd (nM)

INSERT INTO results (primary_sequence, experimental_readout, numeric_readout) VALUES
  ('FRRVAHSSL', 'Kd', 377);

Ref: the Immune Epitope Database (IEDB)
